Data origin, for the record: the supplement of paper PMC9694430

# Tested on: LOC_OS04G41100-cb001
# Sequence (whole entry): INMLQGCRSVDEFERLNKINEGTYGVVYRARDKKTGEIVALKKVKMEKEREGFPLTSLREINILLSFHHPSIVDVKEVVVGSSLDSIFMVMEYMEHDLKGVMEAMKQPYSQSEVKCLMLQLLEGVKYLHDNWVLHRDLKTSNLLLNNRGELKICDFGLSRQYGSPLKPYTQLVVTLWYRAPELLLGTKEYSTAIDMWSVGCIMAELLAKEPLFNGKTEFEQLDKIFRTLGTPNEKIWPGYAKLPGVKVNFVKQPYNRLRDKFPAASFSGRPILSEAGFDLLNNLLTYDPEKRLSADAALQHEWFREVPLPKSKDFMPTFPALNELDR
# TEST_NAME: thermal shift delta Tm vs DMSO control; higher = stronger stabilization (binding);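 note: purified Escherichia coli-expressed rice kinase domain construct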
# CONDITION_NOTES: 12.5 µM; protein concentration 2 µM
The recorded thermal shift delta Tm of each item maps onto one of these classes: A (below 0.4 °C), B (0.4 °C to below 0.9 °C), C (0.9 °C or more)

COMPOUND	ASSIGNED_LABEL
COc1cc2nccc(Oc3ccc(NC(=O)c4cn(C(C)C)c(=O)n(-c5ccc(F)cc5)c4=O)cc3F)c2cc1OC	B
Clc1ccc(Nc2nnc(Cc3ccncc3)c3ccccc23)cc1 [Vatalanib (PTK787) 2HCl]	B
COc1cccc2cc(-c3nc([C@H]4CC[C@H](C(=O)O)CC4)n4ncnc(N)c34)[nH]c12	A
Cn1cc(C2=C(c3ccc(Cl)cc3Cl)C(=O)NC2=O)c2ccccc21	C
CC(C)[C@H](CO)Nc1nc(Nc2cccc(Cl)c2)c2ncn(C(C)C)c2n1	B
CC(C)Nc1cc(-c2c[nH]c(C(=O)N[C@H](CO)c3cccc(Cl)c3)c2)c(Cl)cn1	C

The entry to classify is COc1cc2ncnc(Nc3ccc(Oc4ccccc4)cc3C)c2cc1OC ; which class holds it? A

Please answer likewise for c1cc(-c2cnn3cc(-c4ccc(OCCN5CCCCC5)cc4)cnc23)ccn1 [Dorsomorphin 2HCl] C

Please answer likewise for C[C@@]1(C(=O)Nc2ccc(F)nc2)CCCN1c1nc(Nc2cc(C3CC3)n[nH]2)c2cccn2n1 B

Please answer likewise for NCC(=O)Nc1ccc(-n2nc(C(F)(F)F)cc2-c2ccc3c(ccc4ccccc43)c2)cc1 B

Please answer likewise for COc1cccc(-n2c(=O)[nH]c3cc(Cl)n(-c4ccc(-c5cccc(OC)c5O)cc4)c3c2=O)c1 A

Please answer likewise for N#Cc1cnc(Nc2cc(NC[C@H]3CNCCO3)c(C(F)(F)F)cn2)cn1 C

Please answer likewise for C[C@@H]1COC(Nc2ccc3ncnc(Nc4ccc(OCc5nccs5)c(Cl)c4)c3c2)=N1 B

====

# System: LOC_OS01G51400-cb002
# TEST_NAME: thermal shift delta Tm vs DMSO control; higher = stronger stabilization (binding)
# CONDITION_NOTES: 12.5 µM; protein concentration 2 µM
Classification field: enter yes (1) for thermal shift delta Tm values not below 0.2 °C, no (0) for values below it.

Use the examples below as a reference point.
MOLECULE	ASSIGNED_LABEL
CCOc1ccn(-c2ccc(F)cc2)c(=O)c1C(=O)Nc1ccc(Oc2ccnc(N)c2Cl)c(F)c1	yes (1)
CNc1nc(Nc2cn(C(C)(C)C#N)nc2C)ncc1C(F)(F)F	yes (1)
COc1ccc(S(=O)(=O)N(C(C)=O)c2ccccc2/C=C/c2cc[n+]([O-])cc2)cc1	no (0)
COc1ccccc1-c1cc(Nc2cccc(CS(N)(=O)=O)c2)ncn1	yes (1)
Cc1nc2c(-c3cnc(N)nc3)nc(N3CCOCC3)nc2n1C(C)C	yes (1)
COc1cc2ccc(=O)oc2cc1O	no (0)

Identify whether the reported thermal shift delta Tm of the following molecule is 0.2 °C or greater: C1=N/C2=N/c3ccc(OCCN4CCCC4)c(c3)COC/C=C/COCc3cccc(c3)C(=C1)N2 [Pacritinib (SB1518)] yes (1)

Please answer likewise for O=C1NC(=O)C(=Cc2ccc(-c3ccc(F)cc3)o2)S1 (stereo in doubt) no (0)

Please answer likewise for CC[C@@H](N)CNc1ccnc(-c2cc(-c3cnn(C)c3)ccc2O)n1 yes (1)

Please answer likewise for c1cncc(CN2CCC(n3ncc4c(N5CCOCC5)nc(-c5ccc6[nH]ccc6c5)nc43)CC2)c1 yes (1)

Please answer likewise for C[C@H](CN(C)C)Oc1nc(Nc2cc3cccc(Cl)c3cn2)cnc1C#N no (0)

====

Reported thermal shift delta Tm values for the following compounds.
# Test system: LOC_OS06G16330-cb003
# Sequence (as listed by the source): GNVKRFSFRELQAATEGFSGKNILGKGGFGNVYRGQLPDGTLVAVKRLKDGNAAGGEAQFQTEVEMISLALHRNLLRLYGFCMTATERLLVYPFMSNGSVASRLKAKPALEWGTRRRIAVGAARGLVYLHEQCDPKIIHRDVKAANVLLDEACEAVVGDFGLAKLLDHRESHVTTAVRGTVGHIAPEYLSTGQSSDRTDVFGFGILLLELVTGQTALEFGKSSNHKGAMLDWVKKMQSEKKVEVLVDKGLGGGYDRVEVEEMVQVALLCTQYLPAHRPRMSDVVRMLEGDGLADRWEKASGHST
# TEST_NAME: thermal shift delta Tm vs DMSO control; higher = stronger stabilization (binding)
# CONDITION_NOTES: 12.5 µM; protein concentration 2 µM
Write it as a number; the unit °C goes unstated.

Some compounds with known thermal shift delta Tm results, for comparison:
SMILES_STRING	QUANTITY	UNITS_TEXT	QUANTITATIVE_RESULT
CN1CCN(c2ccc(Nc3cc(-c4cccc(-n5ccc6cc(C7CC7)cc(F)c6c5=O)c4CO)cn(C)c3=O)nc2)CC1	thermal shift delta Tm	°C	0.74
CNC(=O)CN1CCC(Oc2cc3c(Nc4cccc(Cl)c4F)ncnc3cc2OC)CC1	thermal shift delta Tm	°C	1.14
CO[C@H]1CC[C@H](N2C(=O)CNc3ncc(-c4ccc(C(C)(C)O)nc4)nc32)CC1	thermal shift delta Tm	°C	-0.57
CN1CC[C@H](c2c(O)cc(O)c3c(=O)cc(-c4ccccc4Cl)oc23)[C@H](O)C1	thermal shift delta Tm	°C	3.19

// moving on: another record for thermal shift delta Tm
thermal shift delta Tm for C=CC(=O)Nc1ccc2ncnc(Nc3ccc(OCc4cccc(F)c4)c(Cl)c3)c2c1 ? 1.04

====

# Tested on: LOC_OS03G27990-cb004
# TEST_NAME: thermal shift delta Tm vs DMSO control; higher = stronger stabilization (binding)
# CONDITION_NOTES: 12.5 µM; protein concentration 2 µM
Classification field: enter condition met for thermal shift delta Tm values not below 0.2 °C, condition not met for values below it.

Use the examples below as a reference point.
MOLECULE	ASSIGNED_LABEL
CC(C)CC(=O)Nc1n[nH]c2c1CN(C(=O)C1CCN(C)CC1)C2(C)C	condition not met
O=C1NCCc2[nH]c(-c3ccncc3)cc21	condition met
Cc1cc(Nc2ncnc3ccc(NC4=NC(C)(C)CO4)cc23)ccc1Oc1ccn2ncnc2c1	condition not met
O=c1c(-c2ccc(O)cc2)coc2cc(O)cc(O)c12	condition met
CNC(=O)c1cc(Oc2ccc3nc(N[C@@H]4CCCC[C@H]4O)sc3c2)ccn1	condition not met

Identify whether the reported thermal shift delta Tm of the following molecule is 0.2 °C or greater: COc1cc(CCc2cc(NC(=O)c3ccc(N4CC(C)NC(C)C4)cc3)n[nH]2)cc(OC)c1 (centres undefined) condition met

====

# System: LOC_OS01G52050-cb004
# Sequence (as listed by the source): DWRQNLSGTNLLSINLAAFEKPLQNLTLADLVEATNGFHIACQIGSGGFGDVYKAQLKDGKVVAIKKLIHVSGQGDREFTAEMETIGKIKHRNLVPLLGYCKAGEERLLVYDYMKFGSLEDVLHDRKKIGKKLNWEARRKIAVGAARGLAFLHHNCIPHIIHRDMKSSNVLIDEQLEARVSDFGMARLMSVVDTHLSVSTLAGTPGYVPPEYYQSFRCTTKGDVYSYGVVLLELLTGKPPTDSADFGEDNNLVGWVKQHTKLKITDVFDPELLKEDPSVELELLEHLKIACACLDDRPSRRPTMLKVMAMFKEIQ
# TEST_NAME: thermal shift delta Tm vs DMSO control; higher = stronger stabilization (binding)
# CONDITION_NOTES: 12.5 µM; protein concentration 2 µM
Reported thermal shift delta Tm values for the following molecules.
Write it as a number; the unit °C goes unstated.

Some molecules with known thermal shift delta Tm results, for comparison:
MOLECULE	UNITS_TEXT	thermal shift delta Tm
CN1CCN(c2ccc3nc(-c4c(N)c5c(F)cccc5[nH]c4=O)[nH]c3c2)CC1 [Dovitinib (TKI-258) Dilactic Acid]	°C	6.33
COc1nccc(-c2c(-c3ccc(F)cc3)ncn2C2CCC(O)CC2)n1 (stereo not given)	°C	0.27
O=C(O)CCC(=O)Nc1ccc(Br)cn1	°C	0.34
CC1(C)OCCn2c1nc1c(N3CCOCC3)nc(-c3cnc(N)nc3)nc12	°C	0.62

// moving on: another record for thermal shift delta Tm
thermal shift delta Tm for C[C@@H]1COCCN1c1cc(=O)n2c(n1)N(Cc1cncc(Cl)c1)[C@H](C(F)(F)F)CC2 ? 0.49

====

Reported thermal shift delta Tm values for the following compounds.
# Test system: LOC_OS05G28520-cb001
# TEST_NAME: thermal shift delta Tm vs DMSO control; higher = stronger stabilization (binding)
# CONDITION_NOTES: 12.5 µM; protein concentration 2 µM

Some compounds with known thermal shift delta Tm results, for comparison:
COMPOUND	TARGET_SYSTEM	RESULT
C=CC(=O)Nc1cc(Nc2nccc(-c3c[nH]c4ccccc34)n2)c(OC)cc1N(C)CCN(C)C	LOC_OS05G28520-cb001	0.61 °C
c1nc2c(NC3CCCCC3)nc(Nc3ccc(N4CCOCC4)cc3)nc2[nH]1 [Reversine]	LOC_OS05G28520-cb001	0.53 °C
COc1cc2ncnc(Nc3ccc(Cl)cc3F)c2cc1OC	LOC_OS05G28520-cb001	0.86 °C

thermal shift delta Tm for O=C1CCc2c(Oc3ccc4c(c3)[C@@H]3[C@H](O4)[C@H]3c3nc4cc(C(F)(F)F)ccc4[nH]3)ccnc2N1 [Lifirafenib (BGB-283)] ? 0.64 °C

Please answer likewise for Nc1nc2cc(-c3ccc4ncc(C(=O)N5CCOCC5)n4c3)ccc2o1 [Serabelisib (INK-1117,MLN-1117,TAK-117)] 0.55 °C
